molecular target: Aldose Reductase from Rat Crystalline Lens (Rattus norvegicus); assay: biochemical; type: biochemical
recorded-metric: pIC50
For clarity, pIC50 is expressed as the negative log10 of concentration in mol/L.

Task: For the compound C[C@@H]1O[C@@H](Oc2c(-c3ccc(O)c(O)c3)oc3cc(O)cc(O)c3c2=O)[C@H](O)[C@H](O)[C@H]1O [Quercitrin] , what pIC50 is on record?
Output: 6.59

Task: For the compound CCN(CC)C(=S)[S-].[Na+] [DDC-Na, Sodium diethyldithiocarbamate] , what pIC50 is on record?
Output: 2.59

* * *

molecular target: UniProt P07943; assay: biochemical; assay type: biochemical; conditions: pH 6.2, 25° C., DL-glyceraldehyde substrate; read-out: IC50
Answer each item with its documented pIC50.
For clarity, pIC50 is expressed as the negative log10 of concentration in mol/L.

Task: For the molecule CCN(CC)C(=S)SSC(=S)N(CC)CC [DSF, tetraethylthiuram disulfide] , what pIC50 is on record?
Output: 3.92

Task: For the molecule N[C@@H](CCC(=O)N[C@@H](CS)C(=O)NCC(=O)O)C(=O)O [Glutathione (GSH), Glutathione] , what pIC50 is on record?
Output: 2.81

Task: For the molecule CC(=C(CCO)SSCC1CCCO1)N(C=O)Cc1cnc(C)nc1N (stereo in doubt) [Frusultiamine (Alinamine F), Frusultiamine] , what pIC50 is on record?
Output: 3.00

Task: For the molecule CC(C)OC(=O)CNC(=O)[C@H](CS)NC(=O)CC[C@H](N)C(=O)O [GE, Glutathione isopropyl ester] , what pIC50 is on record?
Output: 3.12

Task: For the molecule CO[C@@]1(NC(=O)CSCC#N)C(=O)N2C(C(=O)O)=C(CSc3nnnn3C)CS[C@@H]21 [CMZ, cefmetazole] , what pIC50 is on record?
Output: 3.35

Task: For the molecule CC(S)C(=O)NCC(=O)O (stereo not shown) [Tiopronin] , what pIC50 is on record?
Output: 2.87

Task: For the molecule O=C(O)c1cc(O)c2c3nc4ccccc4oc-3cc(=O)c2n1 [Pirenoxine (Catalin), Pirenoxine] , what pIC50 is on record?
Output: 4.76
